Every entry's value here was drawn from patent US20060154889A1.

System: XTGAGCTCA
Test: Dangling-end thermal denaturation, sequence XTGAGCTCA (Table 2)
Type: physicochemical
Conditions: marker c
Experimental: The dangling-end experimental method was utilized to evaluate the ability of the fluorinated aromatic base analogues to stabilize DNA duplexes when substituted directly adjacent to the helix. The relative stabilizations were measured by comparison of the energetics for helix—coil melting transition of the “core “duplex (lacking any “dangling “nucleotide) to that containing the extra nucleotide. […]
measured property: −G37
Field: value (include unit after the number)

OCC1OC(c2cc(F)c(F)cc2F)CC1O (stereo not shown) [2,4,5-trifluorophenyl] :: 9.2 kcal
OC[C@H]1O[C@@H](c2c(F)c(F)c(F)c(F)c2F)C[C@@H]1O [pentafluorophenyl] :: 8.7 kcal
OC[C@H]1O[C@@H](c2c(F)cc(F)cc2F)C[C@@H]1O [2,4,6-trifluorophenyl] :: 8.8 kcal

--- query ---
Task: Would you mind telling me what −G37 value was observed for OC[C@H]1O[C@@H](c2cc(F)c(F)c(F)c2F)C[C@@H]1O [2,3,4,5-tetrafluorophenyl] ?
Output: 9.1 kcal

---

Provide the recorded Tm for the entries that follow.
tested on: XACAGCTGT; assay: Dangling-end thermal denaturation, sequence XACAGCTGT (Table 1); format: physicochemical; settings: 1 M NaCl, 10 mM sodium phosphate pH 7.0, 5.0 μM DNA-strand
Answers are plain numbers, in °C.

Some solved entries appear below for comparison.
OCC1OC(c2cc(F)c(F)cc2F)CC1O (centres unmarked) [2,4,5-trifluorophenyl] :: 48.9
OC[C@H]1OC(c2ccc(F)cc2)C[C@@H]1O (stereo partly drawn) [4-fluorophenyl, 1′-(4-fluorophenyl)-2′-deoxy-D-ribose] :: 48.7
OC[C@H]1O[C@@H](c2c(F)c(F)c(F)c(F)c2F)C[C@@H]1O [pentafluorophenyl] :: 47.3
OC[C@H]1O[C@@H](c2c(F)cc(F)cc2F)C[C@@H]1O [2,4,6-trifluorophenyl] :: 47.8

With those in mind, consider the next compound.
Task: // map OC[C@H]1O[C@@H](c2cc(F)c(F)c(F)c2F)C[C@@H]1O [2,3,4,5-tetrafluorophenyl] to recorded Tm (system: XACAGCTGT)
Output: 50.9

---

Tested on: (dCGCGCG)2 core duplex
Test: Dangling-end thermal denaturation, sequence XCGCGCG (Table 1)
Format: physicochemical
Conditions: XCGCGCG; Van't Hoff plots
Experimental: The dangling-end experimental method was utilized to evaluate the ability of the fluorinated aromatic base analogues to stabilize DNA duplexes when substituted directly adjacent to the helix. The relative stabilizations were measured by comparison of the energetics for helix-coil melting transition of the “core “duplex (lacking any “dangling “nucleotide) to that containing the extra nucleotide. […]
Could you please mark condition met for values of −ΔS below 100 eu and condition not met for values at or above it?

OC[C@H]1O[C@@H](c2cc(F)c(F)c(F)c2F)C[C@@H]1O [2,3,4,5-tetrafluorophenyl] :: condition met
OCC1OC(c2cc(F)c(F)cc2F)CC1O (centres unmarked) [2,4,5-trifluorophenyl] :: condition not met
OC[C@H]1OC(c2ccc(F)cc2)C[C@@H]1O (stereo partly drawn) [4-fluorophenyl, 1′-(4-fluorophenyl)-2′-deoxy-D-ribose] :: condition not met

Could you now consider this next molecule?
Task: Given the entry OC[C@H]1O[C@@H](c2c(F)cc(F)cc2F)C[C@@H]1O [2,4,6-trifluorophenyl] , would its reported −ΔS be below 100 eu?
Output: condition not met

---

tested on: XACAGCTGT; assay: Dangling-end thermal denaturation, sequence XACAGCTGT (Table 1); assay type: physicochemical; settings: vs core duplex
Labelling field: enter YES if recorded ΔTm is less than 9 °C. Enter NO if it equals or exceeds that cut-off.

Please review the entries below; each comes with its answer.
OC[C@H]1OC(c2ccc(F)cc2)C[C@@H]1O (stereo partly drawn) [4-fluorophenyl, 1′-(4-fluorophenyl)-2′-deoxy-D-ribose] :: YES
OC[C@H]1O[C@@H](c2c(F)cc(F)cc2F)C[C@@H]1O [2,4,6-trifluorophenyl] :: YES
OC[C@H]1O[C@@H](c2c(F)c(F)c(F)c(F)c2F)C[C@@H]1O [pentafluorophenyl] :: YES

Switching to the query record.
Task: Bench note: check whether OC[C@H]1O[C@@H](c2cc(F)c(F)c(F)c2F)C[C@@H]1O [2,3,4,5-tetrafluorophenyl] shows ΔTm below 9 °C
Output: NO

---

test system: XTGAGCTCA; test: Dangling-end thermal denaturation, sequence XTGAGCTCA (Table 2); type: physicochemical; conditions: marker c
Task for the reader: assign each of the following compounds its reported −H.
One number for each entry, in kcal.

Worked examples, 3 compounds total:
OC[C@H]1O[C@@H](c2cc(F)c(F)c(F)c2F)C[C@@H]1O [2,3,4,5-tetrafluorophenyl] :: 51.9
OC[C@H]1O[C@@H](c2c(F)c(F)c(F)c(F)c2F)C[C@@H]1O [pentafluorophenyl] :: 48.6
OCC1OC(c2cc(F)c(F)cc2F)CC1O (stereo not shown) [2,4,5-trifluorophenyl] :: 53.8

Here is another compound to look at.
Task: Quick check: −H on XTGAGCTCA, item OC[C@H]1O[C@@H](c2c(F)cc(F)cc2F)C[C@@H]1O [2,4,6-trifluorophenyl] ?
Output: 46.7

---

System: XACAGCTGT
Assay: Dangling-end thermal denaturation, sequence XACAGCTGT (Table 1)
Format: physicochemical
Conditions: Van't Hoff plots
Experimental: The dangling-end experimental method was utilized to evaluate the ability of the fluorinated aromatic base analogues to stabilize DNA duplexes when substituted directly adjacent to the helix. The relative stabilizations were measured by comparison of the energetics for helix-coil melting transition of the “core “duplex (lacking any “dangling “nucleotide) to that containing the extra nucleotide. […]
measured property: −ΔG37
Please format your answer as a value with the unit trailing.

OCC1OC(c2cc(F)c(F)cc2F)CC1O (centres unmarked) [2,4,5-trifluorophenyl] :: 10.1 ± 0.2 kcal

Give −ΔG37 for each listed item.
1. OC[C@H]1OC(c2ccc(F)cc2)C[C@@H]1O (stereo partly drawn) [4-fluorophenyl, 1′-(4-fluorophenyl)-2′-deoxy-D-ribose]
2. OC[C@H]1O[C@@H](c2cc(F)c(F)c(F)c2F)C[C@@H]1O [2,3,4,5-tetrafluorophenyl]
3. OC[C@H]1O[C@@H](c2c(F)cc(F)cc2F)C[C@@H]1O [2,4,6-trifluorophenyl]
4. OC[C@H]1O[C@@H](c2c(F)c(F)c(F)c(F)c2F)C[C@@H]1O [pentafluorophenyl]

Output:
1. 9.9 ± 0.1 kcal
2. 10.7 ± 0.2 kcal
3. 9.3 ± 0.2 kcal
4. 9.3 ± 0.0 kcal

---

system: (dCGCGCG)2 core duplex; test: Dangling-end thermal denaturation, sequence XCGCGCG (Table 1); type: physicochemical; details: XCGCGCG; vs core duplex
Could you please report measured ΔTm for the items listed next?
Answers are plain numbers, in °C.

Provide reported ΔTm for each item, in the same order as listed.
1. OCC1OC(c2cc(F)c(F)cc2F)CC1O (centres unmarked)
2. OC[C@H]1O[C@@H](c2c(F)cc(F)cc2F)C[C@@H]1O
3. OC[C@H]1O[C@@H](c2cc(F)c(F)c(F)c2F)C[C@@H]1O
4. OC[C@H]1OC(c2ccc(F)cc2)C[C@@H]1O (some centres unmarked)
5. OC[C@H]1O[C@@H](c2c(F)c(F)c(F)c(F)c2F)C[C@@H]1O

Output:
[10.8, 4.0, 12.6, 9.8, 2.9]

---

system: (dCGCGCG)2 core duplex; test: Dangling-end thermal denaturation, sequence XCGCGCG (Table 1); type: physicochemical; conditions: XCGCGCG; 1 M NaCl, 10 mM sodium phosphate pH 7.0; 5.0 μM DNA-strand
Under this convention, 1 denotes Tm strictly below 50 °C and -1 denotes Tm at or above 50 °C.

Examples from the recorded data:
OCC1OC(c2cc(F)c(F)cc2F)CC1O (centres unmarked) :: -1
OC[C@H]1O[C@@H](c2c(F)c(F)c(F)c(F)c2F)C[C@@H]1O :: 1
OC[C@H]1O[C@@H](c2c(F)cc(F)cc2F)C[C@@H]1O :: 1

Okay, now this molecule:
Task: Would you kindly verify if Tm of `OC[C@H]1O[C@@H](c2cc(F)c(F)c(F)c2F)C[C@@H]1O` is strictly less than 50 °C?
Output: -1

---

Provide the recorded −S for the entries that follow.
system: XGTAGCTAC; assay: Dangling-end thermal denaturation, sequence XGTAGCTAC (Table 2); type: physicochemical; conditions: marker c
Record the result as number plus unit.

Some solved cases for reference:
OCC1OC(c2cc(F)c(F)cc2F)CC1O (stereo not shown) [2,4,5-trifluorophenyl] :: 204 eu
OC[C@H]1O[C@@H](c2cc(F)c(F)c(F)c2F)C[C@@H]1O [2,3,4,5-tetrafluorophenyl] :: 156 eu

Please give −S, item by item, for the list that follows.
1. OC[C@H]1O[C@@H](c2c(F)cc(F)cc2F)C[C@@H]1O [2,4,6-trifluorophenyl]
2. OC[C@H]1O[C@@H](c2c(F)c(F)c(F)c(F)c2F)C[C@@H]1O [pentafluorophenyl]

Output:
["142 eu", "155 eu"]
